Hey, just so you know, these numbers are from PubChem BioAssay (NCI).

Item-by-item account of TGI
Tested on: MDA-MB-468 breast
assayMethodText: NCI tumour cell line growth inhibition, 48 h
Respond numerically; units are nM and should not be typed.

Illustrative cases are given below, each with its answer.
compound | systemTested | unitOfMeasure | TGI
COc1ccc(NC(=O)O[C@H]2[C@H](O[C@H]3[C@@H](O)COC(O[C@H]4C[C@H]5[C@@H]6CC=C7C[C@@H](O)CC[C@]7(C)[C@H]6CC[C@]5(C)[C@H]4[C@H](C)C(=O)CCC(C)C)[C@@H]3OC(C)=O)OC[C@@H](O)[C@@H]2O)cc1 (stereo not given in full) | MDA-MB-468 breast | nM | 630
COc1cc(C2C(C#N)=C(N)Oc3cc4c(cc32)OCO4)cc2c1OCO2 (stereo not given) | MDA-MB-468 breast | nM | 836
CN(C)CCOc1nc2ccccc2c2c1-c1ccc(Cl)cc1C2=O | MDA-MB-468 breast | nM | 1970

Lab note: next compound to report on.
Record C[C@@H](Oc1cc(-c2cnn(C3CC4(CCCNC4)C3)c2)cnc1N)c1c(Cl)ccc(F)c1Cl (stereo not given in full) : what is its TGI with MDA-MB-468 breast? 2490

* * *

Test system: MDA-MB-468 breast
assayMethodText: NCI tumour cell line growth inhibition, 48 h; in the data active = GI50 below about 0.43 µM; inactive = the rest
Would you mind answering with one of these outcomes? yes (1) for active, no (0) for inactive

Before answering, review these 3 worked examples.
molecule | groupLabel
CCc1ccccc1-n1c(N)c(C#N)c(-c2ccc(OC)c(OC)c2)c(C#N)c1=O | no (0)
C[C@@H](Oc1cc(-c2cnn(C3CC4(CCCNC4)C3)c2)cnc1N)c1c(Cl)ccc(F)c1Cl (some centres undefined) | no (0)
O=C(NO)c1cnc(N2CCN(S(=O)(=O)c3ccc4ccccc4c3)CC2)nc1 | yes (1)

Read the next record carefully.
State the result this test recorded for COc1ccc(NC(=O)O[C@H]2[C@H](O[C@H]3[C@@H](O)COC(O[C@H]4C[C@H]5[C@@H]6CC=C7C[C@@H](O)CC[C@]7(C)[C@H]6CC[C@]5(C)[C@H]4[C@H](C)C(=O)CCC(C)C)[C@@H]3OC(C)=O)OC[C@@H](O)[C@@H]2O)cc1 (some centres undefined) . yes (1)

* * *

Tested on: MDA-MB-468 breast
assayMethodText: NCI tumour cell line growth inhibition, 48 h; in the data active means GI50 below about 0.43 µM; inactive means the rest
Would you mind answering with one of these outcomes? T for active, F for inactive

Before answering, review these 2 worked examples.
compound | groupLabel
O=C(CC1(O)C(=O)Nc2c(Cl)ccc(Cl)c21)c1ccc(C2CC2)cc1 (centres undefined) | T
CC(=O)N[C@@H](Cc1ccc(OP(=O)(O)O)cc1)C(=O)N[C@H]1CCC(=O)N2CCC[C@@H](C(=O)NCc3ccc(O)cc3)N2C1=O | F

State the result this test recorded for `CCOc1cc(/C=N\NC(=O)N/N=C/c2ccc(O)c(OCC)c2)ccc1O` . F

State the result this test recorded for `Cc1cc2nc3c4ccccc4n(CCN(C)C)c3nc2cc1C` . F

* * *

Tested on: MDA-MB-468 breast
assayMethodText: NCI tumour cell line growth inhibition, 48 h
measurementName: TGI (µM)
Respond numerically; units are µM and should not be typed.

compound | unitOfMeasure | TGI
CCCCCc1c(C)[nH]c(/C=c2\[nH]/c(=C3/C=c4ccccc4=N3)cc2OC)c1C | µM | 1.63

Lab note: next compound to report on.
May I ask what TGI has been recorded for Cc1cc2c(C(C)C)c(O)c(O)c(C=O)c2c(O)c1-c1c(C)cc2c(C(C)C)c(O)c(O)c(C=O)c2c1O (tested in a mixture with another compound) ? 3.75
